This collection of values is drawn from paper PMC6792352.

assay-name: in vitro
run-conditions: rat, gh3-tre-luc cells, AC50 (uM) modified / 1000
Where a name gives a salt, the structure may show the parent alone.
Answer each item with its documented CC50 at 24 h.

get_value(item= `CN(C)c1ccc(C2(c3ccc(N(C)C)cc3)OC(=O)c3cc(N(C)C)ccc32)cc1` , readout=CC50 at 24 h) returns > 90 µM

In plain terms, NC(=O)c1ccccc1O [Salicylamide] has a documented CC50 at 24 h of > 90 µM

// CC50 at 24 h value for CCCCCCCCCOC(=O)c1ccccc1C(=O)OCCCCCCCCC [Dinonyl phthalate] : > 90 µM

The recorded CC50 at 24 h for entry `CCC(=O)c1ccc(O)cc1` equals > 50 µM

Summary for this compound, COC(=O)c1ccccc1C [Methyl 2-methylbenzoate] : CC50 at 24 h is > 90 µM

Recorded result, `CC1(C)S[C@@H]2[C@H](NC(=O)C3(N)CCCCC3)C(=O)N2[C@H]1C(=O)O` , CC50 at 24 h: > 50 µM

Entry under test: `CCCCCOC(=O)Nc1nc(=O)n([C@@H]2O[C@H](C)[C@@H](O)[C@H]2O)cc1F` . Its CC50 at 24 h was > 50 µM

The value of CC50 at 24 h measured for the compound O=C(O[C@H]1CN2CCC1CC2)N1CCc2ccccc2[C@@H]1c1ccccc1 [Solifenacin hydrochloride] turned out to be 19.6 µM

Entry CC1=C(C(=O)OC(C)C)C(c2cccc([N+](=O)[O-])c2)C(C(=O)OC2CN(C(c3ccccc3)c3ccccc3)C2)=C(N)N1 (stereo not shown) — recorded CC50 at 24 h = 4.41 µM

For this compound ( CCCCCCCCCCCCCC(=O)OC [Methyl tetradecanoate] ), measured CC50 at 24 h is > 90 µM

Recorded result, `CCNc1cccc(C)c1` , CC50 at 24 h: > 90 µM

Lab book: CC50 at 24 h of CCN(CCCCOC(=O)c1ccc(OC)c(OC)c1)C(C)Cc1ccc(OC)cc1 (stereo not shown) [Mebeverine hydrochloride] noted as > 20 µM

Memo: `C=C(C)[C@H]1CC=C(C)CC1` , reported CC50 at 24 h: > 90 µM

---

assay-name: in vitro
run-conditions: rat, gh3-tre-luc cells, AC50 (uM) modified / 1000
Where a name gives a salt, the structure may show the parent alone.
endpoint-name: CC50 at 24 h

// CC50 at 24 h lookup, compound = CCCCN=C=O [Butyl isocyanate] , result: > 90 µM

Record CC(=O)NCCO [N-(2-Hydroxyethyl)acetamide] . Reported CC50 at 24 h: > 90 µM

Recorded CC50 at 24 h (compound CCCc1nc(C)c2c(=O)[nH]c(-c3cc(S(=O)(=O)N4CCN(CC)CC4)ccc3OCC)nn12 [Vardenafil citrate] ): > 50 µM

The compound listed as CCCOc1cc(N)ccc1C(=O)OCCN(CC)CC [Propoxycaine hydrochloride] shows CC50 at 24 h equal to > 20 µM

---

assay-name: in vitro
run-conditions: rat, gh3-tre-luc cells, AC50 (uM) modified / 1000
Where a name gives a salt, the structure may show the parent alone.
I'd be grateful if you could share measured CC50 at 24 h for these entries.

The reported value for CC(C)CC(C)N(c1ccccc1)c1ccc(N)cc1 (stereo not drawn) in terms of CC50 at 24 h is 28.5 µM

Lookup result for CC(C)[C@H](Nc1ccc(C(F)(F)F)cc1Cl)C(=O)OC(C#N)c1cccc(Oc2ccccc2)c1 (stereo partly drawn) [Fluvalinate] ; measured CC50 at 24 h: > 90 µM

So, CCOC(=O)C(C)O (stereo not drawn) [Ethyl lactate] ? Its CC50 at 24 h was > 90 µM

# CC50 at 24 h (molecule: CCCC(C)C1(CC)C(=O)NC(=S)NC1=O (stereo not drawn) [Thiopental sodium] ) is > 50 µM

In plain terms, COCC(O)CO (stereo not drawn) [1-O-Methylglycerol] has a documented CC50 at 24 h of > 100 µM

Query C[n+]1ccccc1/C=N/O [Pralidoxime chloride] yields CC50 at 24 h of > 20 µM

For reference, reported CC50 at 24 h for O=C1c2ccccc2C(=O)c2c1ccc(O)c2O [Alizarin] stands at > 50 µM

CC50 at 24 h measured on CN1CCc2cc3c(cc2C1O)OCO3 (stereo not drawn) [Hydrastinine hydrochloride] = > 90 µM

// CC50 at 24 h value for CCCCCCCCCCCCN(C)C [N,N-Dimethyldodecan-1-amine] : > 90 µM

---

Please go through the items and note down their CC50 at 24 h.
assay-name: in vitro
run-conditions: rat, gh3-tre-luc cells, AC50 (uM) modified / 1000

// CC50 at 24 h lookup, compound = `COc1ccc2cc(CCC(C)=O)ccc2c1` , result: > 20 µM

The recorded CC50 at 24 h for entry `O=C(O)c1cc(C(=O)O)cc([N+](=O)[O-])c1` equals > 90 µM

// recorded CC50 at 24 h for O=C(N=NC(=O)OCc1ccccc1)OCc1ccccc1 [Dibenzyl diazene-1,2-dicarboxylate] : > 90 µM

Record `CC(=O)Nc1cccc(C)c1` . Reported CC50 at 24 h: > 90 µM

Query `O=C(O)Cc1cc(I)c(Oc2ccc(O)c(I)c2)c(I)c1` yields CC50 at 24 h of > 20 µM

CC(=O)O[C@H]1C[C@H](O[C@H]2[C@@H](O)C[C@H](O[C@H]3[C@@H](O)C[C@H](O[C@H]4CC[C@@]5(C)[C@H](CC[C@@H]6[C@@H]5CC[C@]5(C)[C@@H](C7=CC(=O)OC7)CC[C@]65O)C4)O[C@@H]3C)O[C@@H]2C)O[C@H](C)[C@H]1O[C@@H]1O[C@H](CO)[C@@H](O)[C@H](O)[C@H]1O [Lanatoside A] yielded CC50 at 24 h of > 50 µM

---

assay-name: in vitro
run-conditions: rat, gh3-tre-luc cells, AC50 (uM) modified / 1000
Structures can show the parent of a compound that is named as a salt.
endpoint-name: CC50 at 24 h

`CN1C[C@H](CNC(=O)OCc2ccccc2)C[C@@H]2c3cccc4c3c(cn4C)C[C@H]21` yielded CC50 at 24 h of 8.07 µM

Just so you know, measured CC50 at 24 h for C=C(C)C(=O)OCC1CO1 (centres unmarked) [Glycidyl methacrylate] came out at > 90 µM

# CC50 at 24 h of C=CCn1cc[n+](C)c1 [1-Allyl-3-methylimidazolium chloride] = > 90 µM

Lab note: CC(=O)OC(OC(C)=O)c1ccc([N+](=O)[O-])o1 [5-Nitro-2-furanmethanediol diacetate] gave CC50 at 24 h of 14 µM

Input `COc1cccc2c1C(=O)c1c(O)c3c(c(O)c1C2=O)C[C@@](O)(C(=O)CO)C[C@@H]3O[C@H]1C[C@H](N)[C@H](O[C@@H]2CCCCO2)[C@H](C)O1` . Output CC50 at 24 h: 1.64 µM

For `C=CC(=C)CCCC(C)(C)OC(C)=O` the compound record lists CC50 at 24 h as > 90 µM

// CC(=O)NS(=O)(=O)c1ccc(N)cc1 [Sulfacetamide] : CC50 at 24 h value = > 90 µM

Value of measured CC50 at 24 h for the entry NC(=O)c1ccc(N)cc1 [4-Aminobenzamide] : > 90 µM

Just so you know, measured CC50 at 24 h for CC(C)(C)NC[C@H](O)COc1nsnc1N1CCOCC1 [(S)-Timolol] came out at > 50 µM

CC50 at 24 h in this record for C[N+](C)(C)CC(O)CC(=O)[O-] (centres unmarked) [Carnitine hydrochloride] : > 50 µM

Briefly, CC50 at 24 h measured for CC(C)(C)C(O)/C(=C\c1ccc(Cl)cc1Cl)n1cncn1 (centres unmarked) : 73.4 µM

Record CC(=O)O[C@]1(C(C)=O)CC[C@H]2[C@@H]3C[C@H](C)C4=CC(=O)CC[C@]4(C)[C@H]3CC[C@@]21C [Medroxyprogesterone acetate] , field CC50 at 24 h: > 90 µM

CC50 at 24 h measured on `C=Cc1ccccc1C=C` = > 400 µM

compound O=Cc1ccccc1S(=O)(=O)O [Sodium 2-formylbenzenesulfonate] , CC50 at 24 h observed: > 90 µM

Measured CC50 at 24 h of `Cc1ccc(-n2nc(C(C)(C)C)cc2NC(=O)Nc2ccc(OCCN3CCOCC3)c3ccccc23)cc1` : > 50 µM

Record summary for `c1ccc(SCCSc2ccccc2)cc1` : reported CC50 at 24 h = > 90 µM

Lab note: `N[C@@H](Cc1cc(I)c(Oc2ccc(O)c(I)c2)c(I)c1)C(=O)O` gave CC50 at 24 h of > 70 µM

The recorded CC50 at 24 h for entry `CC1(C)C(=O)N(Cl)C(=O)N1Br` equals > 90 µM

So for `CCN(CC)c1ccc(N=Nc2ccc(S(=O)(=O)N(C)C)cc2)c(S(=O)(=O)NCC[n+]2ccccc2)c1` , the logged CC50 at 24 h turned out to be > 50 µM

What the record says about Cc1c(C)n(Cc2ccccc2)c2ccc(C(=O)OCCN(C)C)cc12 [Indocate] : CC50 at 24 h is 8.6 µM
